Reported cytotoxicity at 70.5 h is given for each of the following compounds.
- test: Human HepG2 cell viability assay in 384 well format
- Assay type: toxicity, cell-based
- Set-up: dose 125 nL, time 70.5 hour; concentration not given beside the values
- experimental.setup: HepG2 cells, read-out: Inhibition
Report the value in % with no unit label.

{"compound": "CC(=O)N1CCCN(C(=O)NCc2ccc(Cl)s2)CC1", "unit.of.measurement": "%", "cytotoxicity at 70.5 h": -3.07}
{"compound": "Cn1nc(C(=O)NC2CCCCC2)cc1NC(=O)C1CC1", "unit.of.measurement": "%", "cytotoxicity at 70.5 h": -5.38}
{"compound": "O=C(NCCc1ccn(-c2ccccc2)n1)N1CCCC(CO)C1 (stereo unspecified)", "unit.of.measurement": "%", "cytotoxicity at 70.5 h": 1.65}
{"compound": "O=C(NCCCn1cccn1)N1CCCC1c1ccsc1 (stereo unspecified)", "unit.of.measurement": "%", "cytotoxicity at 70.5 h": -9.1}
{"compound": "CC(NC(N)=O)C(=O)N(C)CCCc1cc(-c2ccccc2)no1 (stereo unspecified)", "unit.of.measurement": "%", "cytotoxicity at 70.5 h": -21.7}

Next, consider the following compound.
Request: Please report the measured cytotoxicity at 70.5 h for "NCC1(c2cccc(C(F)(F)F)c2)CC1"
Result: 13.4

All values here come from ChEMBL document CHEMBL3507680.
